System: Escherichia coli
Assay: Antimicrobial activity against Escherichia coli MTCC 739 assessed as diameter of growth zone inhibition by agar streak dilution method; also: test concentration or dose not given here
Format: functional
Each item that follows carries a reported diameter of the inhibition zone (DIZ).

{"Compound": "O=C1CSC(c2cc3ccccc3nc2S)N1c1ccc(F)cc1 (stereo unspecified)", "Censoring operator": "=", "diameter of the inhibition zone (DIZ) (mm)": 24}
{"Compound": "Cc1cnc(N2C(=O)CSC2c2cc3ccccc3nc2S)s1 (stereo unspecified)", "Censoring operator": "=", "diameter of the inhibition zone (DIZ) (mm)": 24}
{"Compound": "Cc1cccc(N2C(=O)CSC2c2cc3ccccc3nc2S)c1 (stereo unspecified)", "Censoring operator": "=", "diameter of the inhibition zone (DIZ) (mm)": 19}
{"Compound": "O=C1C(Cl)C(c2cc3ccccc3nc2S)N1c1ccccc1 (stereo unspecified)", "Censoring operator": "<", "diameter of the inhibition zone (DIZ) (mm)": 10}
{"Compound": "O=C1C(Cl)C(c2cc3ccccc3nc2S)N1c1ccc(Cl)cc1 (stereo unspecified)", "Censoring operator": "=", "diameter of the inhibition zone (DIZ) (mm)": 24}
{"Compound": "O=C1C(Cl)C(c2cc3ccccc3nc2S)N1c1ccc(F)cc1 (stereo unspecified)", "Censoring operator": "=", "diameter of the inhibition zone (DIZ) (mm)": 24}

###

System: Aspergillus niger
Assay: Antimicrobial activity against Aspergillus niger MTCC 282 assessed as diameter of growth zone inhibition by agar streak dilution method; also: test concentration or dose not given here
Assay type: functional
Given measured diameter of the inhibition zone (DIZ), output Met if it is greater than or equal to 20 mm and Not met if not.

{"Molecule": "CC(=O)N1CCN(c2ccc(OCC3COC(Cn4ccnc4)(c4ccc(Cl)cc4Cl)O3)cc2)CC1 (configuration not stated)", "Answer label": "Met"}
{"Molecule": "Cc1ccccc1N1C(=O)C(Cl)C1c1cc2ccccc2nc1S (configuration not stated)", "Answer label": "Not met"}
{"Molecule": "Cc1cnc(N2C(=O)C(Cl)C2c2cc3ccccc3nc2S)s1 (configuration not stated)", "Answer label": "Met"}
{"Molecule": "O=C1C(Cl)C(c2cc3ccccc3nc2S)N1c1ccc([N+](=O)[O-])cc1 (configuration not stated)", "Answer label": "Met"}
{"Molecule": "O=C1C(Cl)C(c2cc3ccccc3nc2S)N1c1cccc(Cl)c1 (configuration not stated)", "Answer label": "Met"}
{"Molecule": "O=C1C(Cl)C(c2cc3ccccc3nc2S)N1c1ccccc1 (configuration not stated)", "Answer label": "Not met"}
{"Molecule": "Cc1ccc(N2C(=O)C(Cl)C2c2cc3ccccc3nc2S)cc1 (configuration not stated)", "Answer label": "Not met"}

###

Test system: Pseudomonas aeruginosa
Assay: Antimicrobial activity against Pseudomonas aeruginosa MTCC 741 assessed as growth inhibition by agar streak dilution method
Format: functional
Readout type: log10(MIC) (log10 of the value in µg/mL)

{"Compound": "O=C1CSC(c2cc3ccccc3nc2S)N1c1ccccc1[N+](=O)[O-] (stereo not given)", "Obs value": 1.40}
{"Compound": "O=C1C(Cl)C(c2cc3ccccc3nc2S)N1c1ccc([N+](=O)[O-])cc1 (stereo not given)", "Obs value": 1.10}
{"Compound": "O=C1C(Cl)C(c2cc3ccccc3nc2S)N1c1cccc(Cl)c1 (stereo not given)", "Obs value": 1.80}
{"Compound": "O=C1CSC(c2cc3ccccc3nc2S)N1c1ccccc1Cl (stereo not given)", "Obs value": 1.80}
{"Compound": "O=C1CSC(c2cc3ccccc3nc2S)N1c1ccc([N+](=O)[O-])cc1 (stereo not given)", "Obs value": 1.10}
{"Compound": "Cc1ccccc1N1C(=O)CSC1c1cc2ccccc2nc1S (stereo not given)", "Obs value": 3.00}
{"Compound": "Cc1cccc(N2C(=O)CSC2c2cc3ccccc3nc2S)c1 (stereo not given)", "Obs value": 2.00}
{"Compound": "Cc1cccc(N2C(=O)C(Cl)C2c2cc3ccccc3nc2S)c1 (stereo not given)", "Obs value": 2.00}
{"Compound": "Cc1cnc(N2C(=O)C(Cl)C2c2cc3ccccc3nc2S)s1 (stereo not given)", "Obs value": 2.00}
{"Compound": "Cc1ccc(N2C(=O)C(Cl)C2c2cc3ccccc3nc2S)cc1 (stereo not given)", "Obs value": 2.00}
{"Compound": "O=C1C(Cl)C(c2cc3ccccc3nc2S)N1c1ccc(Cl)cc1 (stereo not given)", "Obs value": 1.40}
{"Compound": "Cc1ccc(N2C(=O)CSC2c2cc3ccccc3nc2S)cc1 (stereo not given)", "Obs value": 2.00}
{"Compound": "O=C1C(Cl)C(c2cc3ccccc3nc2S)N1c1ccccc1[N+](=O)[O-] (stereo not given)", "Obs value": 1.40}
{"Compound": "Cc1ccccc1N1C(=O)C(Cl)C1c1cc2ccccc2nc1S (stereo not given)", "Obs value": 2.00}
{"Compound": "O=C1C(Cl)C(c2cc3ccccc3nc2S)N1c1cccc([N+](=O)[O-])c1 (stereo not given)", "Obs value": 1.70}
{"Compound": "O=C1CSC(c2cc3ccccc3nc2S)N1c1ccccc1 (stereo not given)", "Obs value": 2.00}
{"Compound": "O=C1C(Cl)C(c2cc3ccccc3nc2S)N1c1ccccc1Cl (stereo not given)", "Obs value": 1.70}
{"Compound": "O=C1C(Cl)C(c2cc3ccccc3nc2S)N1c1ccccc1 (stereo not given)", "Obs value": 2.00}
{"Compound": "O=C1CSC(c2cc3ccccc3nc2S)N1c1cccc([N+](=O)[O-])c1 (stereo not given)", "Obs value": 1.40}
{"Compound": "Cc1cnc(N2C(=O)CSC2c2cc3ccccc3nc2S)s1 (stereo not given)", "Obs value": 1.80}
{"Compound": "O=C1CSC(c2cc3ccccc3nc2S)N1c1ccc(F)cc1 (stereo not given)", "Obs value": 1.70}
{"Compound": "O=C1CSC(c2cc3ccccc3nc2S)N1c1cccc(Cl)c1 (stereo not given)", "Obs value": 1.10}
{"Compound": "O=C1CSC(c2cc3ccccc3nc2S)N1c1ccc(Cl)cc1 (stereo not given)", "Obs value": 1.40}
{"Compound": "O=C1C(Cl)C(c2cc3ccccc3nc2S)N1c1ccc(F)cc1 (stereo not given)", "Obs value": 1.40}

###

Test system: Aspergillus niger
Assay: Antimicrobial activity against Aspergillus niger MTCC 282 assessed as diameter of growth zone inhibition by agar streak dilution method; also: test concentration or dose not given here
Format: functional
Each item that follows carries a reported diameter of the inhibition zone (DIZ).

{"Compound": "O=C1C(Cl)C(c2cc3ccccc3nc2S)N1c1ccccc1Cl (stereo unspecified)", "diameter of the inhibition zone (DIZ), mm": 20}
{"Compound": "Cc1cccc(N2C(=O)C(Cl)C2c2cc3ccccc3nc2S)c1 (stereo unspecified)", "diameter of the inhibition zone (DIZ), mm": 19}
{"Compound": "O=C1CSC(c2cc3ccccc3nc2S)N1c1ccc(Cl)cc1 (stereo unspecified)", "diameter of the inhibition zone (DIZ), mm": 25}
{"Compound": "O=C1CSC(c2cc3ccccc3nc2S)N1c1cccc([N+](=O)[O-])c1 (stereo unspecified)", "diameter of the inhibition zone (DIZ), mm": 23}
{"Compound": "O=C1CSC(c2cc3ccccc3nc2S)N1c1ccccc1Cl (stereo unspecified)", "diameter of the inhibition zone (DIZ), mm": 21}
{"Compound": "Cc1cnc(N2C(=O)CSC2c2cc3ccccc3nc2S)s1 (stereo unspecified)", "diameter of the inhibition zone (DIZ), mm": 23}

###

Each item that follows carries a reported MIC.
Tested on: Bacillus subtilis
Experiment: Antimicrobial activity against Bacillus subtilis MTCC 430 assessed as growth inhibition by agar streak dilution method
Type: functional
Readout type: MIC (µg/mL)

{"Compound": "O=C1C(Cl)C(c2cc3ccccc3nc2S)N1c1cccc([N+](=O)[O-])c1 (stereo unspecified)", "Tested target": "Bacillus subtilis", "Scale unit": "µg/mL", "Censoring operator": "=", "Obs value": 50}
{"Compound": "O=C1C(Cl)C(c2cc3ccccc3nc2S)N1c1ccccc1Cl (stereo unspecified)", "Tested target": "Bacillus subtilis", "Scale unit": "µg/mL", "Censoring operator": "=", "Obs value": 12.5}
{"Compound": "O=C1C(Cl)C(c2cc3ccccc3nc2S)N1c1cccc(Cl)c1 (stereo unspecified)", "Tested target": "Bacillus subtilis", "Scale unit": "µg/mL", "Censoring operator": "=", "Obs value": 12.5}
{"Compound": "O=C1CSC(c2cc3ccccc3nc2S)N1c1ccccc1 (stereo unspecified)", "Tested target": "Bacillus subtilis", "Scale unit": "µg/mL", "Censoring operator": "=", "Obs value": 100}
{"Compound": "O=C1C(Cl)C(c2cc3ccccc3nc2S)N1c1ccc(F)cc1 (stereo unspecified)", "Tested target": "Bacillus subtilis", "Scale unit": "µg/mL", "Censoring operator": "=", "Obs value": 6.25}
{"Compound": "Cc1cnc(N2C(=O)CSC2c2cc3ccccc3nc2S)s1 (stereo unspecified)", "Tested target": "Bacillus subtilis", "Scale unit": "µg/mL", "Censoring operator": "=", "Obs value": 25}
{"Compound": "Cc1cccc(N2C(=O)CSC2c2cc3ccccc3nc2S)c1 (stereo unspecified)", "Tested target": "Bacillus subtilis", "Scale unit": "µg/mL", "Censoring operator": "=", "Obs value": 100}
{"Compound": "O=C1C(Cl)C(c2cc3ccccc3nc2S)N1c1ccc([N+](=O)[O-])cc1 (stereo unspecified)", "Tested target": "Bacillus subtilis", "Scale unit": "µg/mL", "Censoring operator": "=", "Obs value": 25}
{"Compound": "Cc1ccc(N2C(=O)CSC2c2cc3ccccc3nc2S)cc1 (stereo unspecified)", "Tested target": "Bacillus subtilis", "Scale unit": "µg/mL", "Censoring operator": "=", "Obs value": 100}
{"Compound": "O=C1CSC(c2cc3ccccc3nc2S)N1c1ccc(Cl)cc1 (stereo unspecified)", "Tested target": "Bacillus subtilis", "Scale unit": "µg/mL", "Censoring operator": "=", "Obs value": 3.12}
{"Compound": "O=C(O)c1cn(C2CC2)c2cc(N3CCNCC3)c(F)cc2c1=O", "Tested target": "Bacillus subtilis", "Scale unit": "µg/mL", "Censoring operator": "≤", "Obs value": 1}
